Attribution: PubChem BioAssay (NCI)

- Tested on: HCT-116 colon
- Method: NCI tumour cell line growth inhibition, 48 h; in the data active means GI50 below about 0.43 µM; inactive means the rest
Please reply with one of these outcomes: 1.0 (active), 0.0 (inactive)

Answered examples (5):
Please state the recorded outcome for this compound: CN[C@@H]1C[C@H]2O[C@@](C)([C@@H]1OC)n1c3ccccc3c3c4c(c5c6ccccc6n2c5c31)C(=O)N[C@H]4O
1.0

Please state the recorded outcome for this compound: COc1ccc(-c2nn(-c3cccc(Cl)c3)cc2-c2c(C#N)c(=O)n3[nH]c(-c4ccc(C)cc4)nc3c2C#N)cc1
0.0

Please state the recorded outcome for this compound: O=C1C(Cl)=C(Nc2cccc(O)c2)C(=O)N1Cc1ccc(Cl)cc1
0.0

Please state the recorded outcome for this compound: COc1ccc2nc3cc([N+](=O)[O-])ccc3c(NCCCN(CCO)CCO)c2c1
0.0

Please state the recorded outcome for this compound: O=C(NCCN1CCC(O)CC1)c1cc2c(o1)C(=O)c1ccccc1C2=O
1.0

Continuing:
Please state the recorded outcome for this compound: Oc1ccc2ccccc2c1C1NN=C(c2ccccc2)S1 (stereo unspecified)
1.0
